- measurement_target: recombinant soluble homotrimeric HA of A/Netherlands/219/03 (H7N7) (Influenza A virus A/Netherlands/219/03 (H7N7))
- protocol_description: HA microarray, BCC supernatant
- stated_conditions: remark: other sources report otherwise
Listed next: entries and their corresponding Trimeric HA Binding RLU.

>  <binder>
TCN-532 (5262_H18) (antibody, V domains shown) VH: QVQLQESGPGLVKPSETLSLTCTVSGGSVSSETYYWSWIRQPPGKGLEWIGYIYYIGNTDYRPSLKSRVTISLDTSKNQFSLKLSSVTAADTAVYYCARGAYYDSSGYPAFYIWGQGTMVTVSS VL: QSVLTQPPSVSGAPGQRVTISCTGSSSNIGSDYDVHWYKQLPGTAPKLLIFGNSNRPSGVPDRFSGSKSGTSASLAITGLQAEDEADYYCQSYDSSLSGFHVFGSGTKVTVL

>  <quantity_unit>
RLU

>  <Trimeric HA Binding RLU>
327

$$$$
>  <binder>
TCN-543 (5081_G23) (antibody, V domains shown) VH: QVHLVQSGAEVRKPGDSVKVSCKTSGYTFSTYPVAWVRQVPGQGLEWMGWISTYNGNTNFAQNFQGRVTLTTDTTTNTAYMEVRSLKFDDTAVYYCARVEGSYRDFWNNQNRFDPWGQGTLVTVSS VL: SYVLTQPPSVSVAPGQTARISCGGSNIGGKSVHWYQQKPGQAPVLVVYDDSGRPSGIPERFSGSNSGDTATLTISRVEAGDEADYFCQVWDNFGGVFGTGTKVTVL

>  <quantity_unit>
RLU

>  <Trimeric HA Binding RLU>
661

$$$$
